assay: LNP size and polydispersity index by Dynamic Light Scattering (Malvern Zetasizer); type: physicochemical; details: Table 3; LNP ionizable lipid/phospholipid/cholesterol/DMG-PEG2000 about 50/10/38.5/1.5; DOPE, except MC-3 with DSPC; eGFP mRNA
test.readout: PDI

* CCCCC/C=C\C/C=C\CCCCCCCCC(CCCCCCCC/C=C\C/C=C\CCCCC)OC(=O)CCCN(C)C [MC3, reference compound] | 0.08
* CCCCCCCC/C=C\CCCCCCCC(=O)OCC(CNC(=O)OCCOCCOC(=O)NCCN(C)C)OC(=O)CCCCCCC/C=C\CCCCCCCC (stereo not drawn) | 0.217
* CCCCCCCC/C=C\CCCCCCCC(=O)OCC(CNC(=O)OCCOC(C)(C)OCCOC(=O)NCCN1CCCCCC1)OC(=O)CCCCCCC/C=C\CCCCCCCC (stereo not drawn) | 0.108
* CCCCCCCC/C=C\CCCCCCCC(=O)OCC(CNC(=O)OCCOC(C)(C)OCCOC(=O)NCCCN1CCCCC1CC)OC(=O)CCCCCCC/C=C\CCCCCCCC (stereo not drawn) | 0.268
* CCCCCCCC/C=C\CCCCCCCC(=O)OCC(CNC(=O)OCCOCCOC(=O)NCCN1CCCCCC1)OC(=O)CCCCCCC/C=C\CCCCCCCC (stereo not drawn) | 0.258
* CCCCCCCC/C=C\CCCCCCCC(=O)OCC(CNC(=O)OCCSSCCOC(=O)NCCN(C)C)OC(=O)CCCCCCC/C=C\CCCCCCCC (stereo not drawn) | 0.3
